Measured Amax (fit parameter) of individual entries
molecular target: mIDH1R132H (Homo sapiens, UniProt O75874, R132H); construct: purchased BPS Bioscience, San Diego, CA, USA; experiment: enzymatic inhibition assay with commercial IDH1 (R132H) kit; assay type: biochemical; conditions: Hill fit; parentheses = 95% CI
Sequence (O75874 whole entry R132H): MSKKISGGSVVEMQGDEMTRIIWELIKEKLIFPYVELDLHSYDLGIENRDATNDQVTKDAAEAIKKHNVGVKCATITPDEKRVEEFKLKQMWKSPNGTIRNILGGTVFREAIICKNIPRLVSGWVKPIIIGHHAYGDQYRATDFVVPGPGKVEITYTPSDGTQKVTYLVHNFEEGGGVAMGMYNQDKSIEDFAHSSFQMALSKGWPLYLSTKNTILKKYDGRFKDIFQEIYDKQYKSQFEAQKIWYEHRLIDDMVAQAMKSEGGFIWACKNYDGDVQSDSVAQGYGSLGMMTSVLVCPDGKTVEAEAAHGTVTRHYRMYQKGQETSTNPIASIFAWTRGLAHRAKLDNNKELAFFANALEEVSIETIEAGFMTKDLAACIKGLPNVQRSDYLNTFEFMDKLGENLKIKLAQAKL

Worked examples follow.
INSERT INTO results (compound, study_target, recorded_metric, result) VALUES
  ('C[C@H](Nc1ccc(C#N)n(C)c1=O)c1cc2cc(F)ccc2[nH]c1=O [(S)-2]', 'mIDH1R132H (Homo sapiens, UniProt O75874, R132H)', 'Amax (fit parameter)', '95 (93−97) %'),
  ('N#Cc1ccc(NCc2cc3cc(F)ccc3[nH]c2=O)cc1OCCF [compound 5]', 'mIDH1R132H (Homo sapiens, UniProt O75874, R132H)', 'Amax (fit parameter)', '41 (36−45) %');

Value of measured Amax (fit parameter) for the entry COc1cc(NCc2cc3cc(F)ccc3[nH]c2=O)ccc1C#N [compound 4] : 98 (96−100) %

Value of measured Amax (fit parameter) for the entry C[C@@H](Nc1ccc(C#N)n(C)c1=O)c1cc2cc(F)ccc2[nH]c1=O [(R)-2] : 79 (72−87) %

====

Biological target: mIDH1R132H (Homo sapiens, UniProt O75874, R132H)
Construct: purchased BPS Bioscience, San Diego, CA, USA
Assay: enzymatic inhibition assay with commercial IDH1 (R132H) kit
Format: biochemical
Conditions: Hill fit; parentheses = 95% CI
Protocol: The inhibitory activity of the candidate probes against mIDH1 was evaluated by enzymatic assays with serially diluted solutions of the non-labeled compounds using a commercially available assay kit (IDH1 (R132H) from BPS Bioscience, San Diego, CA, USA). IC50 values were determined with GraphPad Prism 4.00 by fitting the resulting dose-response curves with the Hill function. Data are shown as mean ± standard deviation (n = 3). […]
recorded-metric: Hill slope

Worked examples follow.
INSERT INTO results (compound, result) VALUES
  ('C[C@H](Nc1ccc(C#N)n(C)c1=O)c1cc2cc(F)ccc2[nH]c1=O [(S)-2]', '5.6 (4.0−7.2)'),
  ('C[C@@H](Nc1ccc(C#N)n(C)c1=O)c1cc2cc(F)ccc2[nH]c1=O [(R)-2]', '3.0 (1.3−4.8)'),
  ('N#Cc1ccc(NCc2cc3cc(F)ccc3[nH]c2=O)cc1OCCF [compound 5]', '2.1 (1.6−2.7)');

Value of measured Hill slope for the entry COc1cc(NCc2cc3cc(F)ccc3[nH]c2=O)ccc1C#N [compound 4] : 2.8 (2.5−3.0)

====

test: lipophilicity by shake-flask method (n-octanol/water or PBS); assay type: physicochemical; conditions: n-octanol/water, shake-flask, triplicate; read-out: logP
Measured logP of individual entries
Reply with just the number.

INSERT INTO assay_data (compound, readout_number) VALUES
  ('N#Cc1ccc(NCc2cc3cc(F)ccc3[nH]c2=O)cc1OCC[18F] [[^18F]5]', 2.77);

Value of measured logP for the entry COc1cc(NCc2cc3cc([18F])ccc3[nH]c2=O)ccc1C#N [[^18F]4] : 2.5
